- Test system: Human immunodeficiency virus 1
- MEASUREMENT_DESCRIPTION: Antiviral activity against wild type HIV1 3B infected in human MT4 cells assessed as inhibition of virus-induced cytopathic effect after 5 days by MTT assay
- Assay type: functional, organism-based
- CONDITION_INFO: Human immunodeficiency virus 1, 3B, MT4, 120 h
Record form. Attribute: EC50. Fill in for each entry.
Field: numeric (µM). Do not append units.

Incoming: State the recorded EC50 for this entry: Cc1cc(C#N)cc(C)c1Oc1nc(Nc2ccc(C#N)cc2)ncc1SCC(=O)NC1CC1
Outgoing: 0.0024

Incoming: State the recorded EC50 for this entry: COC(=O)CS(=O)(=O)c1cnc(Nc2ccc(C#N)cc2)nc1Oc1c(C)cc(C#N)cc1C
Outgoing: 0.0688

Incoming: State the recorded EC50 for this entry: Cc1cc(C#N)cc(C)c1Oc1nc(Nc2ccc(C#N)cc2)ncc1SCC(=O)NCCN1CCN(C(=O)OC(C)(C)C)CC1
Outgoing: 0.0326
